Kindly supply the reported pIC50 values for the records listed here.
For clarity, pIC50 is expressed as the negative log10 of concentration in mol/L.

Lab note: need pIC50 for CN1CCN(c2ccc(NC(=O)Nc3ccc(-c4nc(N5CCOCC5)nc(N5C6CCC5COC6)n4)cc3)cc2)CC1 on Serine/threonine-protein kinase mTOR (Homo sapiens, UniProt P42345), anyone have it?
8.96

Lab note: need pIC50 for CN(C)c1ccc(NC(=O)Nc2ccc(-c3nc(N4CCOCC4)nc(N4C5CCC4COC5)n3)cc2)cc1 on Serine/threonine-protein kinase mTOR (Homo sapiens, UniProt P42345), anyone have it?
7.87

Lab note: need pIC50 for O=C(Nc1ccncc1)Nc1ccc(-c2nc(N3CCOCC3)nc(N3C4COCC3[C@@H](O)C4)n2)cc1 (stereo partly drawn) on Serine/threonine-protein kinase mTOR (Homo sapiens, UniProt P42345), anyone have it?
9.10
